assay: Antibacterial activity against D-alanyl-D-alanine ligase from Streptococcus faecalis (ATCC 8043)
pIC50: −log10 of the molar value.
reportedEndpoint: pIC50

• CCCCCCCC(C[PH](O)(O)C(C)=N)C(=O)O (stereo unspecified) = 4.90

----------
target: D-alanine--D-alanine ligase (Enterococcus faecalis); assay: Antibacterial activity against D-alanyl-D-alanine ligase from Streptococcus faecalis (ATCC 8043)
pIC50: −log10 of the molar value.
# label = True if pIC50 >= 4 else False

* CC(=N)[PH](O)(O)CC(CC(C)C)C(=O)O (centres undefined) | True
* C[C@H](N)P(=O)(O)O | False
* CCC(C[PH](O)(O)C(C)=N)C(=O)O (centres undefined) | True
* CCCCCCCC(C[PH](O)(O)C(C)=N)C(=O)O (centres undefined) | False
* CC(=N)[PH](O)(O)CC(CCc1ccccc1)C(=O)O (centres undefined) | True
* CCCC(CP(=O)(O)C(C)N)C(=O)O (centres undefined) | True
* CCCCC(C[PH](O)(O)C(=N)CC)C(=O)O (centres undefined) | False
* CC(N)P(=O)(O)CC(Cc1ccccc1)C(=O)O (centres undefined) | True
* CC(N)P(=O)(O)CC(CCCc1ccccc1)C(=O)O (centres undefined) | True
